Biological target: NaV1.1 (Homo sapiens (Human), UniProt P35498)
Assay: Sodium Influx Assay (Flux), NaV1.1
Format: cell-based
Conditions: Trex HEK293 cells, ANG2 dye; arithmetic mean
pIC50: −log10 of the molar value. Counter-ions that a name gives are not always drawn.
Readout name: pIC50

Molecule | pIC50
Cc1c(N(C)[C@H]2CCN(Cc3cccc(C(F)F)c3)C2)ccc(S(=O)(=O)Nc2cscn2)c1F | 4.91

a = Cc1ccc(F)c(CN2CC[C@](C)(Nc3ccc(S(=O)(=O)Nc4cscn4)cc3Cl)C2)c1 [Example 266, formate]
b = O=S(=O)(Nc1ncns1)c1ccc(O[C@@H]2CCN(Cc3ccccc3)C2)c(Cl)c1 [Example 96, 2,2,2-trifluoroacetate]
c = Cc1ccccc1CN1CC[C@H](N(C)c2cc(F)c(S(=O)(=O)Nc3cscn3)cc2C)C1
Put the entries in order of pIC50, starting with the largest number. Return the labels ranked in the requested order, please.
a, c, b

# credit: patent US10246453B2
